Reference for the values: patent US11793797B2

experimental details: Pharmacokinetic study of Compound 1 or 2 in rat
Format: in vivo
measurement setup: male, plasma, po, 15 mg/kg, capsule, fasted
Procedure: Blood samples were taken from each rat (approximately 0.3 mL total blood per time point) at pre-dose, 5 or 15 min and then at various time points up to 24 hours post-dose. Samples were collected on wet ice in tubes containing potassium EDTA (w/v in normal saline; BD Biosciences, Franklin Lakes, N.J. Plasma samples, prepared by centrifugation of whole blood, were stored frozen (−80° C.) prior to analysis. All other reagents were of analytical grade. […]
endpoint name: AUC(0-t) (ng·h/mL)

{"compound": "NCc1cc(Oc2cccc(C(=O)N3C[C@@H](O)[C@H](F)C3)c2)nc(C(F)(F)F)c1 [Compound 1]", "endpoint name": "AUC(0-t)", "measured": 740}

----------
assay system: UniProtKB Q9Y4K0
experimental details: Human LOXL2 CCM assay (Amplex Red amine oxidase activity)
Format: biochemical
measurement setup: CCM containing BSA; read-out: IC50, LOXL2 (CCM containing BSA)
endpoint name: IC50 (nM)

{"chemical string": "NCc1cc(Oc2cccc(C(=O)N3C[C@@H](O)[C@H](F)C3)c2)nc(C(F)(F)F)c1", "endpoint name": "IC50", "measured": 116}

----------
experimental details: Pharmacokinetic study of Compound 1 or 2 in rat
Assay type: in vivo
measurement setup: male, plasma, oral, 15 mg/kg, capsule, fasted, AUC0-t PO/AUC0-t IV

{"chemical string": "NCc1cc(Oc2cccc(C(=O)N3C[C@@H](O)[C@H](F)C3)c2)nc(C(F)(F)F)c1", "bioavailability, %": 69}

----------
experimental details: Pharmacokinetic study of Compound 1 or 2 in rat
Assay type: in vivo
measurement setup: male, plasma, po, 30 mg/kg, PO, 0.5% MC, 30 mg/kg, fasted, read-out: Cmax
endpoint name: Cmax (ng/mL)

{"chemical string": "NCc1cc(Oc2cccc(C(=O)N3C[C@@H](O)[C@H](F)C3)c2)nc(C(F)(F)F)c1", "measured": 1700}

----------
experimental details: Pharmacokinetic study of Compound 1 or 2 in rat
Type: in vivo
measurement setup: male, plasma, iv, 2 mg/kg, saline, fed

{"chemical string": "NCc1cc(Oc2cccc(C(=O)N3C[C@@H](O)[C@H](F)C3)c2)nc(C(F)(F)F)c1", "measurement unit": "ng·h/mL", "AUC(0-t)": 140}

----------
assay system: human LOXL2 (Homo sapiens (Human), UniProt Q9Y4K0)
Sequence (Q9Y4K0 26-774): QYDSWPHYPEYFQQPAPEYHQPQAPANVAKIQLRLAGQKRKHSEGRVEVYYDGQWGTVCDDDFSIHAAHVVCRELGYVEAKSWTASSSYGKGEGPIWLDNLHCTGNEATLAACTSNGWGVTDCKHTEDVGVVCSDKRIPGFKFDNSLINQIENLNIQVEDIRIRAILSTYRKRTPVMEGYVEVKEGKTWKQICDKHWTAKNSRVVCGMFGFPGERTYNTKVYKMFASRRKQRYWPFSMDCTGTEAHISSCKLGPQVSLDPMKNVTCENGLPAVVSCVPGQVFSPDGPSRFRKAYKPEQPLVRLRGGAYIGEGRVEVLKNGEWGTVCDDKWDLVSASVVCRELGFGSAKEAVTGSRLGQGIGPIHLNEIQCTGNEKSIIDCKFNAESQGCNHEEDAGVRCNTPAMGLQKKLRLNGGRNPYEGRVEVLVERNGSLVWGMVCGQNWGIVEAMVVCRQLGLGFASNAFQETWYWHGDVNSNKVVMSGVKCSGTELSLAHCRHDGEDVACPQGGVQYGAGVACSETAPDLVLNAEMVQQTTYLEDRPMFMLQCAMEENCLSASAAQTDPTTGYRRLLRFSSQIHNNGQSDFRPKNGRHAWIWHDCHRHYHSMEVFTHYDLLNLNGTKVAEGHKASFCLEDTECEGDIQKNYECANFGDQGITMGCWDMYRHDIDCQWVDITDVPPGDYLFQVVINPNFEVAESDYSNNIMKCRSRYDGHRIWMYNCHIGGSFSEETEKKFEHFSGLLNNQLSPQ
experimental details: Human LOXL2 CCM assay (Amplex Red amine oxidase activity)
Assay type: biochemical
measurement setup: human LOXL2 CCM (non BSA-containing), 2 h preincubation at 37° C.; read-out: IC50
pIC50: −log10 of the molar value.

{"molecule": "NCc1cc(Oc2cccc(C(=O)N3C[C@H](O)[C@@H](F)C3)c2)nc(C(F)(F)F)c1 (single isomer, unassigned)", "pIC50": "> 6.52"}

----------
experimental details: Pharmacokinetic study of Compound 1 or 2 in rat
Format: in vivo
measurement setup: male, plasma, iv, 2 mg/kg, IV, saline, 2 mg/kg, fed, read-out: Tmax

{"chemical string": "NCc1cc(Oc2cccc(C(=O)N3C[C@@H](O)[C@H](F)C3)c2)nc(C(F)(F)F)c1", "Tmax": "4.98 min"}

----------
experimental details: Pharmacokinetic study of Compound 1 or 2 in rat
Type: in vivo
measurement setup: male, plasma, po, 15 mg/kg, PO, capsule, 15 mg/kg, fasted, read-out: Cmax

{"compound": "NCc1cc(Oc2cccc(C(=O)N3C[C@@H](O)[C@H](F)C3)c2)nc(C(F)(F)F)c1 [Compound 1]", "Cmax, ng/mL": 1200}

----------
experimental details: in vivo
measurement setup: male, beagle, dog, po, 300 mg/kg, Cmax
Protocol: Blood samples were taken from each dog (approximately 1 mL total blood per time point) at pre-dose, 5 or 15 min and then at various time points up to 24 hours post-dose. Samples were collected on wet ice in tubes containing potassium EDTA (w/v in normal saline; BD Biosciences, Franklin Lakes, N.J. Plasma samples, prepared by centrifugation of whole blood, were stored frozen (−80° C.) prior to analysis. All other reagents were of analytical grade. […]

{"chemical string": "NCc1cc(Oc2cccc(C(=O)N3C[C@@H](O)[C@H](F)C3)c2)nc(C(F)(F)F)c1", "Cmax": "143 µg/mL"}

----------
experimental details: Pharmacokinetic study of Compound 1 or 2 in rat
Type: in vivo
measurement setup: male, plasma, iv, 2 mg/kg, IV, saline, 2 mg/kg, fed, read-out: Cmax
endpoint name: Cmax (ng/mL)

{"chemical string": "NCc1cc(Oc2cccc(C(=O)N3C[C@@H](O)[C@H](F)C3)c2)nc(C(F)(F)F)c1", "endpoint name": "Cmax", "measured": 630}

----------
experimental details: in vivo
measurement setup: male, beagle, dog, po, 300 mg/kg, Tmax

{"chemical string": "NCc1cc(Oc2cccc(C(=O)N3C[C@@H](O)[C@H](F)C3)c2)nc(C(F)(F)F)c1", "Tmax [min]": 18}
